- target_or_system: human 5HT1A receptors (Homo sapiens, UniProt P08908)
- Sequence (P08908 whole entry): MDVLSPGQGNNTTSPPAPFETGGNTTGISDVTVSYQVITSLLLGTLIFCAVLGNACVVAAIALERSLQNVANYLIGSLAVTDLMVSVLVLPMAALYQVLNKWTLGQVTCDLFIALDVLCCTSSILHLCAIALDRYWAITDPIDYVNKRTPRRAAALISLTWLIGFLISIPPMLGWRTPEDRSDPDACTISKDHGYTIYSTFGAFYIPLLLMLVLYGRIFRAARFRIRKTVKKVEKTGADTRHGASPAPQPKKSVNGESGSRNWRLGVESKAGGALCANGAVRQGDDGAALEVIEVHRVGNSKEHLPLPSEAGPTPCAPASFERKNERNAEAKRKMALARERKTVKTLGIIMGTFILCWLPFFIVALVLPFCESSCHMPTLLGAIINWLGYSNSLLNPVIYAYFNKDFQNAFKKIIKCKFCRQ
- test_protocol: [3H] 8-OH-DPAT displacement from 5HT1A receptor in stably transfected CHO cells
- stated_conditions: CHO cells with human 5HT1A, read-out: 5HT1A Receptor Affinity Ki
Output true (1) for records whose Ki is lower than 20 nM, false (0) for records at or above 20 nM.

Examples from the recorded data:
chemical_structure=Cc1ccc2c3c(ccc2n1)OC[C@H](CN1CCN(c2ccc4cc(C#N)ccc4n2)C[C@H]1C)O3 discrete_label="true (1)"
chemical_structure=Cc1ccc2c3c(ccc2n1)OC[C@H](CN1CCN(c2ccc4cc(Cl)ccc4n2)CC1)O3 discrete_label="false (0)"
chemical_structure=Cc1ccc2c3c(ccc2n1)OC[C@H](CN1CCN(c2cccc(C(F)(F)F)c2)CC1)O3 discrete_label="false (0)"
chemical_structure=Cc1ccc2c3c(ccc2n1)OC[C@H](CN1CCN(c2cccc(C)c2C)CC1)O3 discrete_label="false (0)"
chemical_structure=Cc1ccc2c3c(ccc2n1)OC[C@H](CN1CCNCC1)O3 discrete_label="true (1)"
chemical_structure=Cc1ccc2c3c(ccc2n1)OC[C@H](CN1CCN(c2coc4ccc(F)cc24)CC1)O3 discrete_label="false (0)"
chemical_structure=Cc1ccc2c3c(ccc2n1)OC[C@H](CN1CCN(c2coc4ccccc24)CC1)O3 discrete_label="false (0)"
chemical_structure=Cc1ccc2c3c(ccc2n1)OC[C@H](CN1CCN(c2ccc(Cl)c(Cl)c2)CC1)O3 discrete_label="false (0)"

-- ask Determine whether this compound shows Ki lower than 20 nM (ties excluded): `COc1ccc2nc(N3CCCN(C[C@H]4COc5ccc6nc(C)ccc6c5O4)CC3)ccc2c1`
-- reply true (1)

-- ask Determine whether this compound shows Ki lower than 20 nM (ties excluded): `Cc1ccc2c3c(ccc2n1)OC[C@H](CN1CCN(c2ccc(Cl)cc2)CC1)O3`
-- reply false (0)

-- ask Determine whether this compound shows Ki lower than 20 nM (ties excluded): `Cc1ccc2c3c(ccc2n1)OC[C@H](CN1CCCN(c2ccc4cc(C#N)ccc4n2)CC1)O3`
-- reply true (1)
